Assay: Ataluren plasma pharmacokinetics, NCT02819557 phase 2 open-label trial (LC-MS/MS)
Type: in vivo, human
Conditions: male, human, plasma, oral, Week 4 - Day 28; arithmetic mean, n=14; oral 10, 10, 20 mg/kg TID; read-out: Ctrough-6 hr

Compound | concentration at 6 h, ng/mL
O=C(O)c1cccc(-c2noc(-c3ccccc3F)n2)c1 [ataluren] | 5430

----------
Assay: Ataluren plasma pharmacokinetics, NCT02819557 phase 2 open-label trial (LC-MS/MS)
Type: in vivo, human
Settings: male, human, plasma, oral, Week 0 - Day 1; arithmetic mean, n=14; oral 10, 10, 20 mg/kg TID; read-out: Ctrough-6 hr
Metric: concentration at 6 h

Compound | Result
O=C(O)c1cccc(-c2noc(-c3ccccc3F)n2)c1 [ataluren] | 9120 ng/mL
